Origin of the recorded values: the supplement of paper PMC10567573

B1: UFD1L (parent)
chain: EAGGRFVAFSGEGQSLRKKGRKP

variants of: B1; assay: protein stability index of a GFP-peptide fusion (GPS, HEK-293T) (PSI 1-6); higher = more stable; conditions: c terminus: native;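 further: lentivirally expressed fusions sorted by FACS into six bins by GFP to DsRed ratio, PSI derived from sequencing read proportions per bin multiplied by bin number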
Hi all, reminder that labels come from protein stability index, split as band 1 (below 2), band 2 (2 to below 3), band 3 (3 or more)

Examples from the recorded data:
1. V7I :: band 1
2. R21S :: band 2
3. G20P :: band 3

[in] Categorize the following entry: G20D
[out] band 2

[in] Input Q14G ; output its category
[out] band 2

[in] Exam item: assign V7S to the correct category.
[out] band 1

[in] Where would F9R land among the classes by reported protein stability index?
[out] band 3

[in] Band of G11A ?
[out] band 1

[in] In plain terms, what class is A8F ?
[out] band 2

[in] Class for E1G ?
[out] band 2
